Tested on: SNB-75 CNS
Assay: NCI-60 one-dose screen, 48 h
Settings: 10 µM
This is part of a sample that, as a whole, favours compounds with a hit. Of some 83,000 tested, about 20% had one in any assay. The source made the active and inactive calls. Rule for the calls: active = growth percent below 10; inactive = the rest.
I would appreciate it if you answered using one of these outcomes: active, inactive

>>> cat("O=C1c2ccccc2CCC1(Br)Br")
"inactive"

-- ask Dear colleague, could you share the recorded outcome for "CCC(C)(c1ccc(O)c(C)c1)c1ccc(O)c(C)c1" when you have a moment?
-- reply inactive

-- ask Check the results log: what was the call for "Cc1cc(N=C2C=CC(=[N+](C)C)C=C2)c(N)cc1N" ?
-- reply inactive
